B1: library; numbered along this chain (parent)
chain: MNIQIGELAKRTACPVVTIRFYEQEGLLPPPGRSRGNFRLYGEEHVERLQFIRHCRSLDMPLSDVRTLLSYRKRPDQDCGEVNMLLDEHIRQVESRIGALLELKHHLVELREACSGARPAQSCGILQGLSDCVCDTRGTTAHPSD

Variants of: B1
ASSAY EXPLANATION: sfGFP reporter fluorescence (15 h) (µM FITC); higher = higher leak
RUN PARAMETERS: library round: Round 0; ligand: none
TEST READOUT: sfGFP reporter fluorescence
I only need the number, thanks.

Answered cases to consult:
K104V L107C G128M : 0.701
Y41H : 0.0599
G36M : 0.0612
I90F : 0.0566
C134T : 0.0654

Data request, read-out sfGFP reporter fluorescence, for D64N
0.0665

Continue with L126M
0.0594

Continue with N83K
0.0603

Continue with T18A
0.0612

Continue with Y41S
0.0603

Continue with R33G
0.0577
